The measured values listed here are drawn from patent US8338380B2.

# Protocol notes: Cytotoxicity in HepG2-2.2.15 cells (dye uptake assay)
# Type: cell-based
# Assay context: human, peptide 10 micrograms per ml, read-out: % Cell Viability
Measured endpoint: viability at 144 h, 10 micrograms per ml
Answer with the number, then the unit.

Reported viability at 144 h, 10 micrograms per ml ( Ac-RFMWMR-NH2 [Ac-Arg-Phe-Met-Trp-Met-Arg-NH2] ) = 100%

###

# Protocol notes: Cytotoxicity in MRC-5 cells (CellTiter 96)
# Assay context: human, MRC-5 cells (embryonal lung fibroblasts)
Measured endpoint: viability at 144 h (%)
Express the result in % but write the number alone.

// sample Ac-RFMWMR-NH2 [Ac-Arg-Phe-Met-Trp-Met-Arg-NH2] , its viability at 144 h was 84

###

# Protocol notes: Cytotoxicity in CEM-SS cells (MTS) of the HIV-1 experiments
# Assay context: human
Measured endpoint: viability at 10 micrograms per ml (%)
Provide the reading as a plain figure in %.

The substance identified as Ac-RFMWMR-NH2 [Ac-Arg-Phe-Met-Trp-Met-Arg-NH2] registered its viability at 10 micrograms per ml at 100
